Cited source: PubChem BioAssay

# PROTOCOL DETAILS: TLR3 IRF3 reporter activation blockers – cell-based, poly I:C stimulus, luciferase, 10K MLSCN set, primary screen (AID 602277)
# CONDITION CONTEXT: HEK293-TLR3 RL24 IRF3 luciferase reporter, at 10 µM
Calls of active or inactive are those of the source.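 How the source made its calls: active means inhibition of the reporter signal at or above 50%; inactive means inhibition below 50%.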
Would you mind answering with one of these outcomes? active, inactive

Reference set, count: 3
COMPOUND	CLASS ASSIGNMENT
CC1(C)CC(=O)C=C(NCCN2CCN(C(=O)Cc3ccc(Cl)cc3)CC2)C1	inactive
COc1ccccc1CN1CCN(C(=O)Cc2ccccc2)CC1	inactive
C=CCN1C(=O)C2(C(C(=O)OCC)=C(N)Oc3c2c(=O)oc2ccccc32)c2ccccc21 (stereo not given)	inactive

**Q:** Test call for this compound, please: `CC(C)[C@H]1C(=O)N2CCC[C@H]2[C@]2(O)O[C@](NC(=O)[C@@H]3C=C4c5cccc6[nH]cc(c56)C[C@H]4N(C)C3)(C(C)C)C(=O)N12`
**A:** inactive

**Q:** Test call for this compound, please: `COc1ccc(C(=O)C(C)(C)NO)cc1`
**A:** inactive

**Q:** Test call for this compound, please: `C[C@H]1OC[C@@H](C[N+](C)(C)C)O1`
**A:** active

**Q:** Test call for this compound, please: COc1ccc(S(=O)(=O)NC(CC(=O)N2CCC3(CC2)OCCO3)c2ccco2)cc1 (stereo not given)
**A:** inactive

====

# PROTOCOL DETAILS: reduction of polyQ htt aggregates in cells – imaging, exon1htt(103Q)mCFP cells, high-content imaging, primary screen (AID 483);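 further: compound exposure lasted 3 days before fixation; percent of the per-plate median nuclei count of sample wells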
# CONDITION CONTEXT: exon1htt(103Q)mCFP cell line, aggregate imaging, at 2 µM; measured here: cell count, toxicity
# nuclei count annotations
Give just the number in %; leave the unit off.

Known results for compounds:
COMPOUND	VALUE TYPE	UNIT TEXT	REPORTED RESULT
C[C@H]1CCCC(=O)CCCCCc2cc(O)cc(O)c2C(=O)O1	nuclei count	%	82.4
COc1ccc(OC)c(C2=NOC(C(=O)N3CCC4(CC3)OCCO4)C2)c1 (stereo unspecified)	nuclei count	%	84.6
CC(C)[C@H]1C(=O)N2CCC[C@H]2[C@]2(O)O[C@](NC(=O)[C@@H]3C=C4c5cccc6[nH]cc(c56)C[C@H]4N(C)C3)(C(C)C)C(=O)N12	nuclei count	%	110

As a next step, examine the compound that follows.
**Q:** Quick one: nuclei count for `CC(C)=CCSc1nnc([C@@H](N)Cc2c[nH]c3ccccc23)o1` ?
**A:** 101

====

# PROTOCOL DETAILS: Primary imaging screen for DUSP6 inhibitors that restore phospho-Erk in transfected HeLa cells, chemical complementation (AID 609)
# CONDITION CONTEXT: HeLa MKP-3 transfected, phospho-Erk imaging KS statistic; measured here: cell density z-score; at 10 µM
In this scheme, each record receives a class according to its z-score; the ranges are bottom (below -0.4), middle (-0.4 to below 0.5), top (0.5 or more)

**Q:** Class (by measured z-score) for `COc1cccc(-n2c(O)c(C=NCCN3CCOCC3)c(=O)[nH]c2=O)c1`
**A:** bottom

**Q:** Class (by measured z-score) for `C[C@H]1OC[C@@H](C[N+](C)(C)C)O1`
**A:** middle

**Q:** Class (by measured z-score) for `CC(=O)C1(c2ccccc2)CCNCC1`
**A:** bottom

**Q:** Class (by measured z-score) for C=CCOC(=O)C1=C(C)OC(N)=C(C#N)C12C(=O)N(CN1CCOCC1)c1ccccc12 (stereo unspecified)
**A:** middle

**Q:** Class (by measured z-score) for `CC(=O)[C@H]1CC[C@H]2[C@@H]3CC[C@H]4C[C@H](O)CC[C@]4(C)[C@H]3C(=O)C[C@]12C`
**A:** bottom

====

# PROTOCOL DETAILS: endothelial E-selectin expression blockers – imaging, HUVEC, immunofluorescence, MLSMR starter and 10KST1 sets, primary screen (AID 487);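 further: 100% = median nuclei count of all wells on the same plate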
# CONDITION CONTEXT: HUVEC TNFalpha-induced E-selectin immunofluorescence imaging, at 2 µM; measured here: cell number, toxicity
# nuclei count annotations
Give just the number in %; leave the unit off.

Known results for compounds:
COMPOUND	UNIT TEXT	nuclei count
Cc1ccc(CC2C(=O)N(C)C(=O)N(C)C2=O)s1	%	101
CC1(C)C(c2ccccc2)=NC(c2cccnc2)N1O (stereo unspecified)	%	99.6
CC[C@@H](CO)NC(=O)[C@@H]1C=C2c3cccc4c3c(cn4C)C[C@H]2N(C)C1	%	113
O=C(c1ccc(CS(=O)(=O)c2ccccc2)o1)N1CCC2(CC1)OCCO2	%	107
CN(C)[C@@H]1C(=O)C(C(N)=O)=C(O)[C@@]2(O)C(=O)C3=C(O)c4c(O)cccc4[C@@](C)(O)[C@H]3C[C@@H]12	%	113

**Q:** Quick one: nuclei count for `C[N+]1(C)CCN(c2ccccc2)CC1` ?
**A:** 118

====

# ASSAYED SYSTEM: Voltage-gated potassium channel subunit beta-2 (Rattus norvegicus) (UniProt P62483)
# Sequence (P62483 whole entry, looked up): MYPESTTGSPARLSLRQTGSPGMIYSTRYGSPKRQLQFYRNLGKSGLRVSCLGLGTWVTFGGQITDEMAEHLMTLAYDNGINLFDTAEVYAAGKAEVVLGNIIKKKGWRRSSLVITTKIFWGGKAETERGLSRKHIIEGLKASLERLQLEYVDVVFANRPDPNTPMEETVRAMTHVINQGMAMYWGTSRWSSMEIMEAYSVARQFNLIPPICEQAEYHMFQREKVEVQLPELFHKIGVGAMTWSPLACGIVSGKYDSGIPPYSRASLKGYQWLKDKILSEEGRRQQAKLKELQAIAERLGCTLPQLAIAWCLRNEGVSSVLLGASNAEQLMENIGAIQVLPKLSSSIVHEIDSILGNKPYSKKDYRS
# PROTOCOL DETAILS: inhibitors of rat Kvbeta2 reductase activity – biochemical, NADPH fluorescence, primary screen (AID 622);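 further: slope of raw intensity against log time taken from 70 to 1610 s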
# CONDITION CONTEXT: recombinant KvBeta, 4-cyanobenzaldehyde reduction, at 10 µM
The source made the active and inactive calls.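 The calls were made as follows: active = fluorescence slope higher than the sample average by over 3 SD (cut at about -0.22 in these data, passing the limit was not always enough); inactive = the rest.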
Would you mind answering with one of these outcomes? label 1 = active, label 0 = inactive

Reference set, count: 8
COMPOUND	CLASS ASSIGNMENT
Cn1c(=O)cc(OCC(=O)N2CCN(C3CCCCC3)CC2)c2ccccc21	label 0
O=c1[nH]c(=O)n(Cc2ccco2)c(O)c1C=NCCCn1ccnc1	label 0
Cc1ccnc(-n2c(-c3ccco3)nc3ccccc3c2=O)c1	label 0
COc1ccc(N2CCN(CCCN)CC2)cc1	label 0
Cn1c(O)c(C=NC2CCN(Cc3ccccc3)CC2)c(=O)n(C)c1=O	label 0
C[C@H]1OC[C@@H](C[N+](C)(C)C)O1	label 0
CC1(C)Cc2c(sc3c2C(=O)NC(c2cccnc2)N3)CO1 (stereo not given)	label 0
CC(C)OC(=O)c1c(N)n(CC2CCCO2)c2nc3ccccc3nc12 (stereo not given)	label 1

**Q:** Test call for this compound, please: CN(C)[C@@H]1C(=O)C(C(N)=O)=C(O)[C@@]2(O)C(=O)C3=C(O)c4c(O)ccc(Cl)c4[C@@](C)(O)C3C[C@@H]12 (stereo not given in full)
**A:** label 0

**Q:** Test call for this compound, please: CN1C(=O)N(C)C(=O)C2(Cc3ccccc3N3CCOCC32)C1=O (stereo not given)
**A:** label 0

**Q:** Test call for this compound, please: COC(=O)C(O)(c1ccc(NC(=O)c2ccco2)c(OC)c1)C(F)(F)F (stereo not given)
**A:** label 0

**Q:** Test call for this compound, please: `CN(C)CCN=Cc1c(O)n(-c2cccc3ccccc23)c(=O)[nH]c1=O`
**A:** label 0

**Q:** Test call for this compound, please: `CC(C)OC(=O)c1c(N)n(Cc2ccco2)c2nc3ccccc3nc12`
**A:** label 0

**Q:** Test call for this compound, please: `CCOc1ccccc1-n1c(O)c(C=Nc2c(C)n(C)n(-c3ccccc3)c2=O)c(=O)[nH]c1=O`
**A:** label 0

**Q:** Test call for this compound, please: O=C1OCCC1NC1=NCCC1 (stereo not given)
**A:** label 0

**Q:** Test call for this compound, please: `CC(=C1C(=O)c2ccccc2C1=O)N1CCN(CCN=Cc2c(O)n(C)c(=O)n(C)c2=O)CC1`
**A:** label 0

**Q:** Test call for this compound, please: `Nc1c(C(=O)NCc2ccco2)c2nc3ccccc3nc2n1CCN1CCCCC1`
**A:** label 0

**Q:** Test call for this compound, please: `O=C(c1ccc2nc(-c3ccco3)c(-c3ccco3)nc2c1)N1CCC2(CC1)OCCO2`
**A:** label 0

**Q:** Test call for this compound, please: `CC(=NCc1cccnc1)c1c(O)n(Cc2ccccc2)c(=O)[nH]c1=O`
**A:** label 0

**Q:** Test call for this compound, please: O=C1C2CCCN2C(c2ccc(Cl)c(Cl)c2)N1c1ccccn1 (stereo not given)
**A:** label 0

====

# ASSAYED SYSTEM: Muscarinic acetylcholine receptor M4 (Homo sapiens)
# PROTOCOL DETAILS: M4-linked GIRK flux change, two-sided – cell-based, HEK293 M4/GIRK, thallium flux, BTC-AM, M4 allosteric agonist project, primary screen (AID 625);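 further: thallium influx through GIRK channels coupled to M4 in HEK293 cells with BTC-AM dye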
# CONDITION CONTEXT: at 10 µM, actives lie on both sides
Please use class 1 for fluorescence slope under 0.005 and class 0 for everything else, ties included.

MOLECULE	CLASS ASSIGNMENT
CC1CN=C(Nc2ccc(N(C)C)cc2)S1 (centres undefined)	class 1
COc1ccccc1-n1c(O)c(C=NCCCn2ccnc2)c(=O)[nH]c1=O	class 0
OCC12COC3c4ccccc4C(OC1)N32 (centres undefined)	class 0
CN(C)CCOC(=O)c1cn(Cc2ccccc2)c2ccccc12	class 0
COc1cc(/C=N/n2cnnc2)ccc1OC(=O)N(C)C	class 0
COC(=O)C(c1ccccc1)N1CCCCCC1 (centres undefined)	class 1

**Q:** Lab note: confirm whether the reported fluorescence slope for this molecule is below 0.005, equality not counting. molecule: COc1ccc(C2SCC(=O)Nc3c2c(=O)[nH]n3C2CCCCCC2)cc1 (centres undefined)
**A:** class 0

**Q:** Lab note: confirm whether the reported fluorescence slope for this molecule is below 0.005, equality not counting. molecule: `Cc1cccc(-n2c(-c3ccco3)nc3ccccc3c2=O)n1`
**A:** class 0

**Q:** Lab note: confirm whether the reported fluorescence slope for this molecule is below 0.005, equality not counting. molecule: CC1CCN2c3nc4ccccn4c(=O)c3CC3(C(=O)N(C)C(=O)N(C)C3=O)C2C1 (centres undefined)
**A:** class 1

**Q:** Lab note: confirm whether the reported fluorescence slope for this molecule is below 0.005, equality not counting. molecule: `O=C(c1ccc(CS(=O)(=O)c2ccccc2)o1)N1CCC2(CC1)OCCO2`
**A:** class 1

**Q:** Lab note: confirm whether the reported fluorescence slope for this molecule is below 0.005, equality not counting. molecule: `COC(=O)c1ccccc1-n1c(C)nc2ccccc2c1=O`
**A:** class 0
